Measured composite z-score accompanies every entry in the list below.
Target: Torsin-1A (Homo sapiens)
Test: torsin A binders from cell lysate, primary screen, small-molecule microarray, wild-type, 635/667 nm (AID 1149)
Settings: COS7 hTOR1A-WT lysate, 635 nm fluorescence, higher = more signal
Lab note: write the figure by itself, no unit.

Here are 5 compounds together with their reported answers.
INSERT INTO assay_data (compound, result) VALUES
  ('CC(C)OC(=O)C=C1C[C@@H](c2ccc(C#N)cc2)O[C@@H](c2ccc(C#N)cc2)O1', 1.99),
  ('CO[C@@H]1COC(=O)[C@@H]2CCCN2C(=O)[C@@H](C)COC(=O)[C@H](COCc2ccccc2)NC(=O)CC=C[C@H]1C', 0.999),
  ('C#CCCCON=C1C[C@@H](O)[C@@H](O)[C@@H]2[C@@H]3C(=O)N([C@@H](C)c4ccccc4)C(=O)[C@@H]3CC[C@H]12', 0.258),
  ('COc1cccc([C@H]2Oc3ccc(OC)cc3C(=NO[C@H](C)c3cn([C@@H]4COC[C@H]4O)nn3)[C@@H]2O)c1', -0.102),
  ('COc1ccc(O[C@H]2C=C[C@@H](c3ccccc3)O[C@@H]2COC(=O)CCC(C)=NOCC[C@@H]2C=C[C@H](OC(C)=O)[C@@H](COC(C)=O)O2)cc1', 1.56);

Can you look up the measured composite z-score of "COc1ccc([Si](C)(C)[C@H]2[C@H](CCO)O[C@@]3(C(=O)N(Cc4cccc(NC(=O)[C@H](C)O)c4)c4ccccc43)[C@@H]2C)cc1" for me?
0.715

Can you look up the measured composite z-score of "CC(C)=C1C(=O)C(c2ccccc2)=C2CN3C(=O)N(CCc4ccccc4)C(=O)[C@]3(Cc3ccc(F)cc3)[C@H]21" for me?
-2.38

Can you look up the measured composite z-score of "NCCCCCNC(=O)[C@@H]1C[C@@H]2C(=O)N3CCC[C@H]3C(=O)N2[C@@H]1c1cccc(OCCO)c1" for me?
-0.0659
